- target_or_system: UniProt P42336
- Sequence (P42336 whole entry): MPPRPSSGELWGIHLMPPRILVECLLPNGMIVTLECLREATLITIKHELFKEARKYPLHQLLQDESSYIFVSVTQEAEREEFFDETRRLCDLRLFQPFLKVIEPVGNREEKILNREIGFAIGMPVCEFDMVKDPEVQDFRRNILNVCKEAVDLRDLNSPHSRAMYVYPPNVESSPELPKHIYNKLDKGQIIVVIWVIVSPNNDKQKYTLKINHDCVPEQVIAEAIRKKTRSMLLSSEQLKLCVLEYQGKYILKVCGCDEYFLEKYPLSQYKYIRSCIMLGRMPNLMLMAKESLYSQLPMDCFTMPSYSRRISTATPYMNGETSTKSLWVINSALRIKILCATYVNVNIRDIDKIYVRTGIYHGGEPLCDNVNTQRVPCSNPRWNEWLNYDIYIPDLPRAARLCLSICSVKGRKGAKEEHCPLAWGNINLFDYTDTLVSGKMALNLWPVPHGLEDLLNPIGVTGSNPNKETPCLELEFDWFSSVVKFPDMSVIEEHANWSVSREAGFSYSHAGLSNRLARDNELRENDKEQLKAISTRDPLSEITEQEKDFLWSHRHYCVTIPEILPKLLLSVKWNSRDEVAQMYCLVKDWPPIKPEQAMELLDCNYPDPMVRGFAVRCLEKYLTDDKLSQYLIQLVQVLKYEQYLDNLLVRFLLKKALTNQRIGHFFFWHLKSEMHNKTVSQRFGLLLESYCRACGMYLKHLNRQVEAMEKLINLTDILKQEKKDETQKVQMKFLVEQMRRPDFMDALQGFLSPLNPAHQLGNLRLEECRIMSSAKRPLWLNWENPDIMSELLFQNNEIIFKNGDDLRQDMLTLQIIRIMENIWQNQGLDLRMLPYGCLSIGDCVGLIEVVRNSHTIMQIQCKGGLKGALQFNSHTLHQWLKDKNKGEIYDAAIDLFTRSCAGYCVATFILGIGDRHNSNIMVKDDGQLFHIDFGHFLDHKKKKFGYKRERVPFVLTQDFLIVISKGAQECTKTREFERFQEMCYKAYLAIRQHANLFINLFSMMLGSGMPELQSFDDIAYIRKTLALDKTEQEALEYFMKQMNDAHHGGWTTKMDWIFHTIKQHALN
- Sequence (Q63787 whole entry partner): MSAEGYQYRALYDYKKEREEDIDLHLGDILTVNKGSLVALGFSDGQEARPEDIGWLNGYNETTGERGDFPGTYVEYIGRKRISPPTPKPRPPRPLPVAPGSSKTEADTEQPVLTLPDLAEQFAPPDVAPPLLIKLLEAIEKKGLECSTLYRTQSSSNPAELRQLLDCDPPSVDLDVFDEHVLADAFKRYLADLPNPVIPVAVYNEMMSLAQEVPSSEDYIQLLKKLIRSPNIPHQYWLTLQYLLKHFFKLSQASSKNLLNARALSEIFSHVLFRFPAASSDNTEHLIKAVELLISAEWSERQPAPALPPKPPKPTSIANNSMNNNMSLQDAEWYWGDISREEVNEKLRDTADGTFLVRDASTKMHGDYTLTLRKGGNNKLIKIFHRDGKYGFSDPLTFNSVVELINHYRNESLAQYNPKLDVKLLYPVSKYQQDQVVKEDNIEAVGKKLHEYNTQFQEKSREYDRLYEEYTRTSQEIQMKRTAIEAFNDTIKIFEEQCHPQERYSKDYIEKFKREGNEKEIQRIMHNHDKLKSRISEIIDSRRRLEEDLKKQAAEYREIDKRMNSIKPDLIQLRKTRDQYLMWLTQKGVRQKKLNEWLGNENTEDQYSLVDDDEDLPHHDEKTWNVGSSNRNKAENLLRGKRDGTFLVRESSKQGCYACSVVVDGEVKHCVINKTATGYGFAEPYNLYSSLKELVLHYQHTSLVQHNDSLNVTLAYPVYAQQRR
- method_notes: Cellular assay H1, p-Akt (S473) in Rat-1 cells, Surefire format
- Assay type: cell-based
- setup_conditions: non-asterisked data: version H1 (Surefire format), Rat-1 cells; read-out: Assay H PI3Kα IC50
pIC50: −log10 of the molar value.
result_type: pIC50

[[record]]
molecule = "Cc1ncc(-c2nc(-c3cc(S(=O)(=O)NC[C@H]4CCOC4)ccc3C)cnc2N)s1"
value_reported = 6.89

[[record]]
molecule = "Cc1cc(F)c(S(=O)(=O)NCC(C)(C)O)cc1-c1cnc(N)c(-n2cncn2)n1"
value_reported = 5.64

[[record]]
molecule = "Cc1cc(F)c(S(=O)(=O)NCCC(C)(C)O)cc1-c1cnc(N)c(-c2cnn(C)c2)n1"
value_reported = 5.53

[[record]]
molecule = "Cc1ccc(S(=O)(=O)NCC2COCCN2C)cc1-c1cnc(N)c(-c2cn(C)nc2C)n1 (centres unmarked) [Example 128.2]"
value_reported = 5.72

[[record]]
molecule = "COc1nc(-c2nc(-c3cc(S(=O)(=O)NCCC(C)(C)O)ccc3C)cnc2N)cs1"
value_reported = 6.32


P = Cc1ncc(-c2nc(-c3cc(S(=O)(=O)NC[C@H]4C[C@H](O)C4)ccc3C)cnc2N)s1 [Example 20b]
Q = Cc1ccc(S(=O)(=O)NC[C@H]2C[C@@H](O)C2)cc1-c1cnc(N)c(-c2nc(C3CC3)no2)n1
So which one has the bigger pIC50 here, P or Q ? Could you answer with the label of the item you picked? P
(P: 6.18, Q: 5.53)

* * *

Entries annotated with measured pIC50
- target_or_system: Vps34 (Homo sapiens, UniProt Q8NEB9)
- Sequence (Q8NEB9 whole entry, species assumed): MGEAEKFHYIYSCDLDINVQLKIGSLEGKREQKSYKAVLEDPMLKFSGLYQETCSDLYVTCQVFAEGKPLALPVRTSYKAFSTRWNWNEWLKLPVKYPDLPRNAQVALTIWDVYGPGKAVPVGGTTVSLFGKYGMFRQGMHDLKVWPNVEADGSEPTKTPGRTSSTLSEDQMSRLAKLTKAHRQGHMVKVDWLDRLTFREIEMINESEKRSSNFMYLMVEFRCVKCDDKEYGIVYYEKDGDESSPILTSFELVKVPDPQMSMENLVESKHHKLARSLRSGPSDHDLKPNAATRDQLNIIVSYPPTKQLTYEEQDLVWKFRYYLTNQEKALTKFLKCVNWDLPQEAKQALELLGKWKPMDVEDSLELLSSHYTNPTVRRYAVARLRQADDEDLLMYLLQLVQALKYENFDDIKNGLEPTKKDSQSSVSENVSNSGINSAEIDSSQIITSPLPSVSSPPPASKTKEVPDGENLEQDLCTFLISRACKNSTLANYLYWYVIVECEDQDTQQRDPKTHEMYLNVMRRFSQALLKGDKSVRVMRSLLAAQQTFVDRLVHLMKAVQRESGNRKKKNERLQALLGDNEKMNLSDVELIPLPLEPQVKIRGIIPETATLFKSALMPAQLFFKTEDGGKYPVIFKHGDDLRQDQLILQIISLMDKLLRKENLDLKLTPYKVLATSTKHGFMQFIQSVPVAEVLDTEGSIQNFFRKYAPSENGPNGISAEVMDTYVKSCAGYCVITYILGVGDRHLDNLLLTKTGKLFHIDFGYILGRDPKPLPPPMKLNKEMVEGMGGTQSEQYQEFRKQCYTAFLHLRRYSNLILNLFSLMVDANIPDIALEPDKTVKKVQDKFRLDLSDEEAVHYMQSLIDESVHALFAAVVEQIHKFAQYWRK
- method_notes: Kinase Glo Luminescent Kinase Assay (Kglo), assay C
- Assay type: biochemical
- setup_conditions: read-out: Assay C VPS34 IC50
pIC50: −log10 of the molar value.

[[record]]
compound = "Cc1ncc(-c2nc(-c3cc(S(=O)(=O)NCC(F)(F)F)ccc3C)cnc2N)s1 [Example 45.5]"
result_type = "pIC50"
value_reported = 6.19

[[record]]
compound = "Cc1ccc(S(=O)(=O)NC[C@H]2CCCO2)cc1-c1cnc(N)c(-n2cncn2)n1 [Example 127.14]"
result_type = "pIC50"
value_reported = "< 5.00"


I have this compound here, Cc1ccc(S(=O)(=O)NC[C@H]2C[C@@H](O)C2)cc1-c1cnc(N)c(-c2cc(C3CC3)no2)n1 [Example 100] , and I need its recorded pIC50. 5.14

I have this compound here, Cc1cc(-c2nc(-c3cc(S(=O)(=O)NCCN4CCCC4)ccc3C)cnc2N)ccn1 [Example 129.27] , and I need its recorded pIC50. < 5.04

I have this compound here, Cc1ccc(S(=O)(=O)NCC(C)(F)F)cc1-c1cnc(N)c(-n2cncn2)n1 [Example 127.43] , and I need its recorded pIC50. < 5.00

I have this compound here, Cc1ncc(-c2nc(-c3cc(S(=O)(=O)NCC4(O)COC4)ccc3C)cnc2N)s1 [Example 45.11] , and I need its recorded pIC50. 5.80

I have this compound here, CC(C)(O)CCNS(=O)(=O)c1ccc(Cl)c(-c2cnc(N)c(-n3cncn3)n2)c1 [Example 38] , and I need its recorded pIC50. < 5.04

I have this compound here, Cc1cc(-c2nc(-c3cc(S(=O)(=O)N[C@@H]4CCC[C@H]4N)ccc3C)cnc2N)ccn1 [Example 129.39] , and I need its recorded pIC50. < 5.04
